tested_system: hKCNQ2/3 (Homo sapiens, UniProt O43525+O43526)
Sequence (O43526 whole entry): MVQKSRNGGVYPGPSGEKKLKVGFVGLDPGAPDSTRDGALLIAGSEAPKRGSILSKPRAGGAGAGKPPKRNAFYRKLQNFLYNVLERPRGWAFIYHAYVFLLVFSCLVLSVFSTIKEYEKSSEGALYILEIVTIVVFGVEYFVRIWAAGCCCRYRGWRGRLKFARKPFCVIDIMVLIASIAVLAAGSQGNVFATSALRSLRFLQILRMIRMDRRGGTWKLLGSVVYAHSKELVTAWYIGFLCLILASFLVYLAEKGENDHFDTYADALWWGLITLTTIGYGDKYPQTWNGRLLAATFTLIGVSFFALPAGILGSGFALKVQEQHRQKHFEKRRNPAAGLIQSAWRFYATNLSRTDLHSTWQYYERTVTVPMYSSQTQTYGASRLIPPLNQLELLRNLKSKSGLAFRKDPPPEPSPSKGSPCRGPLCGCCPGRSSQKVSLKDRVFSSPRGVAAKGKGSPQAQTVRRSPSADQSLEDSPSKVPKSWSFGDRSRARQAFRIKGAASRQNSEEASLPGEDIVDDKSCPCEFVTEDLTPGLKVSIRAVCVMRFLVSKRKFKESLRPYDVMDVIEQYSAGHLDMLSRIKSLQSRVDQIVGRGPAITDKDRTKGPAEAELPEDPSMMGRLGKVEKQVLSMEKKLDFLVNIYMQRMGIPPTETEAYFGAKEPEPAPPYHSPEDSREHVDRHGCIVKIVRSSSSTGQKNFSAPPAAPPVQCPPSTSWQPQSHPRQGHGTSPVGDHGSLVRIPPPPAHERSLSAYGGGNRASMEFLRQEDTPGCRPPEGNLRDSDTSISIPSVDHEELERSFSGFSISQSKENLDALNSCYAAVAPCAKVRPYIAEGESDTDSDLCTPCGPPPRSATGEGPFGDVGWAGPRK
Sequence (O43525 whole entry): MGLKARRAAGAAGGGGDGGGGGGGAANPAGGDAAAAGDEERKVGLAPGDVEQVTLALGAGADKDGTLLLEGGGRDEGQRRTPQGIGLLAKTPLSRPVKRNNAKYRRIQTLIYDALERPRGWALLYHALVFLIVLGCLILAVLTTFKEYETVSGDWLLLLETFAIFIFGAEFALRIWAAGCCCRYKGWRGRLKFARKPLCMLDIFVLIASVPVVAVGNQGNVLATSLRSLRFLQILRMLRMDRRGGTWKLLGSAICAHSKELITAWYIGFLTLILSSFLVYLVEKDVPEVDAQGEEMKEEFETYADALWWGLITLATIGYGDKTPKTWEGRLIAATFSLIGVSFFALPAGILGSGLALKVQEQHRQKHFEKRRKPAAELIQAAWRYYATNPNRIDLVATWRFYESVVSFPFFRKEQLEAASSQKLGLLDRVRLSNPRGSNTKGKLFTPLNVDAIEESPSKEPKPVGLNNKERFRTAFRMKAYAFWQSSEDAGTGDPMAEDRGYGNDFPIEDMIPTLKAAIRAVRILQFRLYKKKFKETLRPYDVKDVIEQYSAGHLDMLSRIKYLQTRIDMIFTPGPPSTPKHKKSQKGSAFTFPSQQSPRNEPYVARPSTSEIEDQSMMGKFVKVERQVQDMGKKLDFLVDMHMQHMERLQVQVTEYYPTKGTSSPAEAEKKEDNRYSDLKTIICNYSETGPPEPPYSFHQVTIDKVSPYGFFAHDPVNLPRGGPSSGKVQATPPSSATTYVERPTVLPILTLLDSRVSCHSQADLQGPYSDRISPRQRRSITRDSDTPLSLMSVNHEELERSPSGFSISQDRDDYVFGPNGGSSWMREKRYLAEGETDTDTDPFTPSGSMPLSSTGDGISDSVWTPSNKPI
measurement_description: Fluorescence assay using a voltage-sensitive dye (fluorimetry)
Assay type: cell-based
Set-up: expressed in transfected cells; host or cells: CHO-K1
condition_info: 1 μM; relative to retigabine = 100%; CHO-K1 cells expressing KCNQ2/3; read-out: Fluorimetry % Efficacy @ 1 μM (Retigabine = 100%)
recorded_metric: Emax at 1 µM (%)

>>> print(df.to_string())
                                   molecule  recorded_metric  unit_descriptor  reported_value
0  Cc1ccccc1C1c2ccccc2CCN1C(=O)CCC(=O)NCc1ccccc1C(F)(F)F (stereo not shown)     Emax at 1 µM                %              67
1  O=C(CCC(=O)N1CCc2ccc(F)cc2C1c1ccccc1)NCc1cccc(C(F)(F)F)c1 (stereo not shown)     Emax at 1 µM                %              69

A. CC1CN(C(=O)CCC(=O)NCc2cccc(C(F)(F)F)c2)C(c2ccccc2)c2ccccc21 (stereo not shown)
B. COc1ccc2c(c1)C(c1ccccc1)N(C(=O)CCC(=O)NCc1cccc(C(F)(F)F)c1)CC2 (stereo not shown)
Could you tell me which of A and B has the lower Emax at 1 µM reading? # reply format: chosen label
B
(B: 30%, A: 51%)

The values you see were collected from patent US8367700B2.
